# test.system: MyD88^TIR (Homo sapiens)
# Construct: MyD88 (residues 148–296); 6xHis; made in house; host or cells: E. coli BL21 (DE3)
# method.summary: T‐Surf phage library (P8 and P3) selection against MyD88^TIR, four rounds, NGS read counts
# Assay type: binding
# reported.conditions: P8 library, selection against MyD88, rank by count before grouping
P8_MyD88 Rank (before) reference

[[record]]
item_sequence = "CALCELLQILHARGLF"
test_system = "MyD88^TIR (Homo sapiens)"
result = 1345


query: // output P8_MyD88 Rank (before); input "YPQDLDWFYERLVSQF" ; system MyD88^TIR (Homo sapiens)
result: 2097

query: Jot down P8_MyD88 Rank (before) (MyD88^TIR (Homo sapiens)) of "YKLALHFRDWLLGAYI" .
result: 2138

query: Write down measured P8_MyD88 Rank (before) (MyD88^TIR (Homo sapiens)) for this sequence. "IWVWDFYNSQLEGPMG"
result: 3609

---

# test.system: MAL^TIR (Homo sapiens)
# Construct: MAL (residues 79–221); 6xHis; made in house; host or cells: E. coli BL21 (DE3)
# method.summary: T‐Surf phage library (P8 and P3) selection against MAL^TIR, four rounds, NGS read counts
# Format: binding
# reported.conditions: P3 library, selection against MAL TIR; rank by count after grouping
# Description: T‐Surf libraries were screened against the immobilized TIR domains of two major human TLR adaptor proteins, MAL^TIR and MyD88^TIR, allowing cross‐species selection of TIR‐binding motifs with 190 946 TIR‐derived peptides in a single binding assay (Scheme 1). Enriched phage pools from the fourth round of selection were analyzed using NGS after barcoding the peptide‐coding regions of the phage pools. […]
Collected P3_MAL Rank (after) values appear next to each entry.
Give the figure only, with no unit attached.

[[record]]
item_sequence = "PNLRTKVLAYLNRTKT"
experimental_readout = "P3_MAL Rank (after)"
result = 240

[[record]]
item_sequence = "KMQKWKDALYEAAKLG"
experimental_readout = "P3_MAL Rank (after)"
result = 250

[[record]]
item_sequence = "YNFISHLYAALQRKHVET"
experimental_readout = "P3_MAL Rank (after)"
result = 253

[[record]]
item_sequence = "KDPDNYKFAIHERDFP"
experimental_readout = "P3_MAL Rank (after)"
result = 207

[[record]]
item_sequence = "SSFLSHLFDALQRKQI"
experimental_readout = "P3_MAL Rank (after)"
result = 218

[[record]]
item_sequence = "YAFTSHLHRSLVQRGV"
experimental_readout = "P3_MAL Rank (after)"
result = 257


query: Using MAL^TIR (Homo sapiens) as the test system, report measured P3_MAL Rank (after) of "LQNQWKLALTQAAN" .
result: 231

query: Supply P3_MAL Rank (after) measured with MAL^TIR (Homo sapiens) for "PNLRTKLLNSLMRTKT" .
result: 273

query: For MAL^TIR (Homo sapiens), give P3_MAL Rank (after) of the listed sequence: "LQNQWKLALTKVAHLL"
result: 219

query: Send back MAL^TIR (Homo sapiens) P3_MAL Rank (after) of "LKWAIRIFGANCVMR" only.
result: 274

query: Report its P3_MAL Rank (after) with MAL^TIR (Homo sapiens) as the test system: "PNLRTKVLSYLMRTTT"
result: 270

---

P8_MyD88 Rank (after) values for the sequences below.
# test.system: MyD88^TIR (Homo sapiens, UniProt Q99836)
# Construct: MyD88 (residues 148–296); 6xHis; made in house; host or cells: E. coli BL21 (DE3)
# Sequence (Q99836 148-296): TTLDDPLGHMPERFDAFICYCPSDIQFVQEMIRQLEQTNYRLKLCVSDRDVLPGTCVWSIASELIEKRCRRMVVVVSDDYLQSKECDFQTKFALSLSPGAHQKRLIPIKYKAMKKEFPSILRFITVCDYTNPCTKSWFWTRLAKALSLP
# method.summary: T‐Surf phage library (P8 and P3) selection against MyD88^TIR, four rounds, NGS read counts
# Type: binding
# reported.conditions: P8 library, selection against MyD88, rank by count after grouping
Please give the numeric answer without any surrounding text.

[[record]]
item_sequence = "DRQDLVWPYERLVSLL"
test_system = "MyD88^TIR (Homo sapiens, UniProt Q99836)"
result = 698

[[record]]
item_sequence = "WALDELLQILQARELS"
test_system = "MyD88^TIR (Homo sapiens, UniProt Q99836)"
result = 721

[[record]]
item_sequence = "YYFTIGIAKRKLSRK"
test_system = "MyD88^TIR (Homo sapiens, UniProt Q99836)"
result = 692


query: State its P8_MyD88 Rank (after) for this sequence: "WDFASNMEQFWDRLLYA"
result: 711

query: Assign P8_MyD88 Rank (after) to the following record: "YYDSRWALDELWLILEQR"
result: 749

query: Input "YITRFDDIQQIELFWD" , output reported P8_MyD88 Rank (after).
result: 688

query: Give P8_MyD88 Rank (after) for the following sequence: "PQDLEWFYERGEPDS"
result: 751

query: Specify reported P8_MyD88 Rank (after) for the sequence shown: "DPQVLEWLYKRLFSQM"
result: 677

query: For the sequence "DPQDLDWFYERRVCLF" , give its measured P8_MyD88 Rank (after) value.
result: 733

query: For "FFSGFREQEDFISKRW" , write its P8_MyD88 Rank (after).
result: 681

---

# test.system: MyD88^TIR (Homo sapiens, UniProt Q99836)
# Construct: MyD88 (residues 148–296); 6xHis; made in house; host or cells: E. coli BL21 (DE3)
# method.summary: T‐Surf phage library (P8 and P3) selection against MyD88^TIR, four rounds, NGS read counts
# Type: binding
# reported.conditions: P8 library, 4R selection against MyD88, rank after grouping
This section presents sequences with their documented P8_MyD88 Rank (after) values.
Reply with just the number.

# example entries with known answers
[[record]]
item_sequence = "YLRADDLVLGKTAVC"
test_system = "MyD88^TIR (Homo sapiens, UniProt Q99836)"
result = 643

[[record]]
item_sequence = "DPPVLEWFYESLFSQM"
test_system = "MyD88^TIR (Homo sapiens, UniProt Q99836)"
result = 601

[[record]]
item_sequence = "DPQGLVCYYERLVSLL"
test_system = "MyD88^TIR (Homo sapiens, UniProt Q99836)"
result = 595

[[record]]
item_sequence = "YLRADEFWTLEKLLTA"
test_system = "MyD88^TIR (Homo sapiens, UniProt Q99836)"
result = 609

[[record]]
item_sequence = "WDFSGNMKQALDRLCY"
test_system = "MyD88^TIR (Homo sapiens, UniProt Q99836)"
result = 613


query: Fill in P8_MyD88 Rank (after) for "DSLFWDRLLPNLEGPAG" tested with MyD88^TIR (Homo sapiens, UniProt Q99836).
result: 645

---

P3_MyD88 Rank (before) values, listed per item
# test.system: MyD88^TIR (Homo sapiens, UniProt Q99836)
# Construct: MyD88 (residues 148–296); 6xHis; made in house; host or cells: E. coli BL21 (DE3)
# method.summary: T‐Surf phage library (P8 and P3) selection against MyD88^TIR, four rounds, NGS read counts
# Type: binding
# reported.conditions: P3 library, selection against MyD88, rank by count before grouping
Could you respond with only the numeric value?

These recorded examples may help you get a feel for the data.
[[record]]
item_sequence = "DHLDPSHLRKQSGEFG"
result = 1991

[[record]]
item_sequence = "DHHLDLLRGIAIKLEILG"
result = 1998

[[record]]
item_sequence = "VDPSHLRKQSGEFG"
result = 1770

[[record]]
item_sequence = "LVAHEISKMLKIFETI"
result = 2284

[[record]]
item_sequence = "YLKWGYVVLGSSAFC"
result = 1574


query: Return P3_MyD88 Rank (before) (reported value) for this sequence: "RISAFHQQLLMALKTQ"
result: 2609

query: For the sequence "KEVEGWRDALYEAANLS" , report P3_MyD88 Rank (before).
result: 3620

query: Output P3_MyD88 Rank (before) of "YTALTNRGFHTFRDHH"
result: 1651

query: Quote P3_MyD88 Rank (before) reported for "GRYEELFMTETDERLP" please.
result: 1853

query: Query P3_MyD88 Rank (before) for "RTLLENLWASVDISHK"
result: 2643

query: Please give measured P3_MyD88 Rank (before) of the following entry: "YNFISQLYDALQRNRI"
result: 1743

query: Read the entry "NELVNVWSSKANSQVG" and write its reported P3_MyD88 Rank (before).
result: 3451

---

# test.system: MAL^TIR (Homo sapiens, UniProt P58753)
# Construct: MAL (residues 79–221); 6xHis; made in house; host or cells: E. coli BL21 (DE3)
# Sequence (P58753 79-221): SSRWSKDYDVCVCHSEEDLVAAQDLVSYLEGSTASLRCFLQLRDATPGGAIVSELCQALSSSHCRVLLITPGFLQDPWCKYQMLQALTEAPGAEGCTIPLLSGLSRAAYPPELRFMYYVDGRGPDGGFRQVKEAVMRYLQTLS
# method.summary: T‐Surf phage library (P8 and P3) selection against MAL^TIR, four rounds, NGS read counts
# Assay type: binding
# reported.conditions: P8 library, selection against MAL, rank before grouping
# Experimental: T‐Surf libraries were screened against the immobilized TIR domains of two major human TLR adaptor proteins, MAL^TIR and MyD88^TIR, allowing cross‐species selection of TIR‐binding motifs with 190 946 TIR‐derived peptides in a single binding assay (Scheme 1). Enriched phage pools from the fourth round of selection were analyzed using NGS after barcoding the peptide‐coding regions of the phage pools. […]
experimental.readout: P8_MAL Rank (before)
Simply state the number, no unit and no words.

[[record]]
item_sequence = "WFYERLVSLMLRNTKV"
test_system = "MAL^TIR (Homo sapiens, UniProt P58753)"
result = 1225

[[record]]
item_sequence = "WFYERLVRLILSDTKV"
test_system = "MAL^TIR (Homo sapiens, UniProt P58753)"
result = 1175

[[record]]
item_sequence = "AFLYSFLTNLTHPTEN"
test_system = "MAL^TIR (Homo sapiens, UniProt P58753)"
result = 1818

[[record]]
item_sequence = "WFYERFVSQIPRDTNL"
test_system = "MAL^TIR (Homo sapiens, UniProt P58753)"
result = 1151

[[record]]
item_sequence = "RNFVAYLFKALANTGI"
test_system = "MAL^TIR (Homo sapiens, UniProt P58753)"
result = 2219

[[record]]
item_sequence = "WFYERLVSMITRDTNV"
test_system = "MAL^TIR (Homo sapiens, UniProt P58753)"
result = 1271

[[record]]
item_sequence = "LFFWESLKQLLRSVGH"
test_system = "MAL^TIR (Homo sapiens, UniProt P58753)"
result = 2102

[[record]]
item_sequence = "AFLYSLLISLPETANI"
test_system = "MAL^TIR (Homo sapiens, UniProt P58753)"
result = 1810


Please examine the following record next.
query: For the sequence "PFFWEQLRTVLGKPTK" , report P8_MAL Rank (before).
result: 2323
